Readout: melting point

Some solved entries appear below for comparison.
q: What value of melting point has been recorded for this entry: `COCCOCc1cccc(-n2nnc3cnc(Nc4ccc(F)cc4)nc32)c1`
a: 148 °C

q: Here is the next compound: `N#Cc1cccc(Nc2ncc3nnn(-c4cccc(F)c4)c3n2)c1`
a: 228 to 230 °C

q: Subsequent entry: `N#Cc1ccc(Nc2ncc3nnn(-c4cccc(F)c4)c3n2)cc1Cl`
a: > 260 °C

q: Also, `C=CCN(c1cccc(Nc2ncc3nnn(-c4cccc(CO)c4)c3n2)c1)S(C)(=O)=O` please.
a: 158 to 162 °C

q: Now the compound C[S+]([O-])c1cccc(Nc2ncc3nnn(-c4cccc(F)c4)c3n2)c1 (stereo not drawn)
a: 168 to 172 °C

q: Also need `NS(=O)(=O)c1cccc(Nc2ncc3nnn(-c4cccc(F)c4)c3n2)c1` , thanks.
a: 177 °C

q: Same lookup for `O=C(O)/C=C/c1cccc(Nc2ncc3nnn(-c4cccc(F)c4)c3n2)c1` , please.
a: > 250 °C

q: Thanks! And `COc1cc(Nc2ncc3nnn(-c4cccc(F)c4)c3n2)ccc1C(=O)O` ?
a: 232 °C

For the next question, use this compound.
q: Any idea what melting point was measured for `CC(C)Oc1cccc(Nc2ncc3nnn(-c4cccc(F)c4)c3n2)c1` ?
a: 142 to 146 °C

====

Field: IC50. Provide a value for each of the compounds that follow.
- Target Or Test System: GSK3alpha (Homo sapiens, UniProt P49840)
- Sequence (P49840 whole entry, species assumed): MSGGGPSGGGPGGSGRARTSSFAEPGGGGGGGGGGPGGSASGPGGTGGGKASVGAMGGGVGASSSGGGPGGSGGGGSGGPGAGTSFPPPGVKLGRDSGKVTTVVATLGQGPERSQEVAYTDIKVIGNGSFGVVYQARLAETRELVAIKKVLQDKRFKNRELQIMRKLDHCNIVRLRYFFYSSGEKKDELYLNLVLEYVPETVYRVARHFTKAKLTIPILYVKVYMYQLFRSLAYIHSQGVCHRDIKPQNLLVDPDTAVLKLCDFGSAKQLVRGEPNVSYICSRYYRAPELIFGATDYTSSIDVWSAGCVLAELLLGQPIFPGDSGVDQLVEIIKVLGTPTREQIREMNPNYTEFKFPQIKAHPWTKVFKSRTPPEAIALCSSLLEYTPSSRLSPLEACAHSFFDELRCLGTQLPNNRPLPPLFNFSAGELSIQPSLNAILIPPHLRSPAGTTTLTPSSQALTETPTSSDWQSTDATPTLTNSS
- Experimental Protocol: GSK3alpha assay (same as the GSK3beta assay, GSK3alpha 0.25 ng/μl)
- Assay type: biochemical
- Settings: −log IC50 (M); given as ranges (>8; 7-8; <7); read-out: pIC50 (GSK3alpha) (converted)
- Procedure: GSK3beta assays were performed at room temperature in a 100 μl reaction volume of 25 mM Tris (ph 7.4) containing 10 mM MgCl2.6H2O 1 mM DTT, 0.1 mg/ml BSA, 5% glyceol and containing 5.7 ng/μl GSK3β, 5 μM biotinylated phosphorylated CREB peptide, 1 μM APT, 0.85 μCi/ml ATP-P^33 and a suitable amount of a test compound of formula (I). After one hour, the reaction was terminated by adding 70 μl of Stop mix (0.1 mM APT, 5 mg/ml streptavidin coated PVT SPA bead pH 11.0). […]

q: // returns reported IC50 for input `N#CCc1ccc(Nc2ncc3nnn(-c4cccc(F)c4)c3n2)cc1`
a: < 1e-08 M

q: Try this compound next: `COCc1cccc(-n2nnc3cnc(Nc4ccc(C(=O)O)c(Cl)c4)nc32)c1`
a: < 1e-08 M

q: One more compound: `COc1cc(Nc2ncc3nnn(-c4cccc(F)c4)c3n2)ccc1C(=O)O`
a: < 1e-08 M

q: Try this compound too: C[S+]([O-])c1cccc(Nc2ncc3nnn(-c4cccc(F)c4)c3n2)c1 (stereo not shown)
a: < 1e-08 M

q: Try this compound next: `CC(C)CC(=O)NCc1cccc(-n2nnc3cnc(Nc4ccc(S(N)(=O)=O)cc4)nc32)c1`
a: < 1e-08 M

q: Follow-up entry: `CC(=O)NCc1cccc(-n2nnc3cnc(Nc4cccc(S(C)(=O)=O)c4)nc32)c1`
a: < 1e-08 M

q: Would you mind doing `COc1cccc(-n2nnc3cnc(Nc4cccc(C(=O)O)c4)nc32)c1` as well?
a: 1e-08 to 1e-07 M

q: Item: `CS(=O)(=O)Nc1cccc(Nc2ncc3nnn(-c4cccc(CNC(=O)C56CC7CC(CC(C7)C5)C6)c4)c3n2)c1`
a: < 1e-08 M

q: Now consider `NC(=O)CNC(=O)c1cccc(Nc2ncc3nnn(-c4cccc(F)c4)c3n2)c1` .
a: < 1e-08 M

q: COCc1cccc(-n2nnc3cnc(Nc4cccc([S+](C)[O-])c4)nc32)c1 (stereo not shown) , same question.
a: < 1e-08 M

Each of the following entries comes with a recorded value; kindly state IC50 for each.
1. CCOC(=O)NCc1cccc(-n2nnc3cnc(Nc4ccc(OC)nc4)nc32)c1
2. COCCOCc1cccc(-n2nnc3cnc(Nc4ccc(C(=O)N(C)C)cc4)nc32)c1
3. OCCc1ccc(Nc2ncc3nnn(-c4cccc(CCO)c4)c3n2)cc1

a:
< 1e-08 M
< 1e-08 M
< 1e-08 M

====

For each record, write down the corresponding melting point.

Give one value of melting point per listed compound.
1. NS(=O)(=O)c1cccc(Nc2ncc3nnn(-c4cccc(-c5cnco5)c4)c3n2)c1 [Compound 57]
2. COc1cccc(-n2nnc3cnc(Nc4cccc(C#N)c4)nc32)c1 [Compound 55]
3. CC(=O)NCc1cccc(Nc2ncc3nnn(-c4cccc(C(=O)O)c4)c3n2)c1 [Compound 76]
4. CN(C)CCCOc1ccc(Nc2ncc3nnn(-c4cccc(F)c4)c3n2)cc1 [Compound 297]

a:
> 250 °C
228 to 231 °C
> 260 °C
137 °C

====

Record form. Attribute: IC50. Fill in for each entry.
- Target Or Test System: GSK3β (Homo sapiens)
- Sequence (P49841 whole entry, species assumed): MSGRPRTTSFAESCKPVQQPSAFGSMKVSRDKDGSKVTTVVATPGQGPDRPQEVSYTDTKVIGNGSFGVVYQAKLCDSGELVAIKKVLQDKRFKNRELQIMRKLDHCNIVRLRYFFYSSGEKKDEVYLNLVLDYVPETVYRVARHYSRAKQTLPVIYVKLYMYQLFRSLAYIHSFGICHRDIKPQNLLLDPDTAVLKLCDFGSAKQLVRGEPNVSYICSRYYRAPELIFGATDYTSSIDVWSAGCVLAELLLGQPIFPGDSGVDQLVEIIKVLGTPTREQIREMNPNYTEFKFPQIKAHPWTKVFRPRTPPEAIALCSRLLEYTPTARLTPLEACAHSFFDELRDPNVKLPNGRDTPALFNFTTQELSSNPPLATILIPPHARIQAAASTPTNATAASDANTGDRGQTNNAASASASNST
- Experimental Protocol: GSK3beta assay (SPA, biotinylated phosphorylated CREB peptide, ATP-P33)
- Format: biochemical
- Settings: −log IC50 (M); given as ranges (>8; 7-8; <7); read-out: pIC50 (GSK3beta) (converted)

Recorded IC50, per entry:
q: Give its IC50 value. Item: `COCCOCc1cccc(-n2nnc3cnc(Nc4ccc(CN)cc4)nc32)c1`
a: 1e-08 to 1e-07 M

q: // query: `COc1cccc(-n2nnc3cnc(Nc4cccc(S(N)(=O)=O)c4)nc32)c1`
a: < 1e-08 M

q: Then `COCc1cccc(Nc2ncc3nnn(-c4cccc(F)c4)c3n2)c1` ?
a: < 1e-08 M

q: What about `COCc1cccc(-n2nnc3cnc(Nc4ccc(C(=O)O)c(C)c4)nc32)c1` ?
a: < 1e-08 M

q: Can you handle `CN(C)CCOc1ccc(Nc2ncc3nnn(-c4cccc(F)c4)c3n2)cc1` next?
a: 1e-08 to 1e-07 M

q: Then `COCC(=O)NCc1cccc(-n2nnc3cnc(Nc4ccc(S(N)(=O)=O)cc4)nc32)c1` ?
a: < 1e-08 M

Continue with the next compound.
q: For `O=C(O)c1ccc(Nc2ncc3nnn(-c4cccc(Br)c4)c3n2)cc1` , what is its reported IC50?
a: < 1e-08 M

====

Provide the reported IC50 of each item.
- Target Or Test System: GSK3β (Homo sapiens)
- Experimental Protocol: GSK3beta assay (SPA, biotinylated phosphorylated CREB peptide, ATP-P33)
- Type: biochemical
- Settings: −log IC50 (M); given as ranges (>8; 7-8; <7); read-out: pIC50 (GSK3beta) (converted)

q: For the molecule shown here, `NC(=O)Cc1cccc(-n2nnc3cnc(Nc4cccc(C(=O)NCCO)c4)nc32)c1` , give the reported IC50.
a: < 1e-08 M

Please state IC50 for every molecule in the list that follows.
1. COCc1cccc(-n2nnc3cnc(Nc4ccc(OC)nc4)nc32)c1
2. COCc1cccc(-n2nnc3cnc(Nc4ccc(C(=O)O)c(Cl)c4)nc32)c1
3. Fc1cccc(-n2nnc3cnc(Nc4ccc(CNCC(F)(F)F)cc4)nc32)c1
4. CN(C)C(=O)c1ccc(Nc2ncc3nnn(-c4cccc(F)c4)c3n2)cc1
5. COCc1cccc(Nc2ncc3nnn(-c4ccccc4)c3n2)c1

a:
1. < 1e-08 M
2. < 1e-08 M
3. < 1e-08 M
4. < 1e-08 M
5. < 1e-08 M

====

- Target Or Test System: GSK3alpha (Homo sapiens, UniProt P49840)
- Experimental Protocol: GSK3alpha assay (same as the GSK3beta assay, GSK3alpha 0.25 ng/μl)
- Format: biochemical
- Settings: −log IC50 (M); given as ranges (>8; 7-8; <7); read-out: pIC50 (GSK3alpha) (converted)
Readout: IC50

As a guide, the following entries are already answered.
q: For the molecule `COCCOc1cccc(-n2nnc3cnc(Nc4ccc(CCN)cc4)nc32)c1` , what IC50 is on record?
a: 1e-08 to 1e-07 M

q: # repeat for `NS(=O)(=O)c1ccc(Nc2ncc3nnn(-c4cccc(F)c4)c3n2)cc1`
a: < 1e-08 M

q: Another molecule: `CNC(=O)c1ccc(Nc2ncc3nnn(-c4cccc(CC#N)c4)c3n2)cc1`
a: 1e-08 to 1e-07 M

q: Query `NS(=O)(=O)c1cccc(Nc2ncc3nnn(-c4cccc(F)c4)c3n2)c1` next
a: < 1e-08 M

q: Same question for `CC(C)CC(=O)NCc1cccc(-n2nnc3cnc(Nc4ccc(C(=O)O)cc4)nc32)c1` please.
a: 1e-08 to 1e-07 M

q: Also, `CCOC(=O)NCc1cccc(-n2nnc3cnc(Nc4cccc(COC)c4)nc32)c1` please.
a: < 1e-08 M

Fill in IC50 for each of the 7 molecules listed.
1. COCC(=O)NCc1cccc(-n2nnc3cnc(Nc4cccc(C#N)c4)nc32)c1
2. CCOC(=O)NCc1cccc(-n2nnc3cnc(Nc4ccc(CCO)cc4)nc32)c1
3. COc1ccc(Nc2ncc3nnn(-c4cccc(CNC(C)=O)c4)c3n2)cn1
4. Nc1cccc(Nc2ncc3nnn(-c4cccc(F)c4)c3n2)c1
5. CSc1cccc(Nc2ncc3nnn(-c4cccc(F)c4)c3n2)c1
6. N#CCc1cccc(-n2nnc3cnc(Nc4ccc(Cl)cc4)nc32)c1
7. O=C(O)c1ccc(Nc2ncc3nnn(-c4cccc(F)c4)c3n2)cc1O

a:
["< 1e-08 M", "< 1e-08 M", "< 1e-08 M", "1e-08 to 1e-07 M", "< 1e-08 M", "< 1e-08 M", "< 1e-08 M"]
